For each entry below, report its EC50 value.
# Test system: A549
# testName: Cytotoxicity against human A549 cells after 3 days by sulforhodamine B assay
# Format: functional, cell-based
# assayConditions: A549, 72 h
Answers are plain numbers, in µg/mL.

Here is how some compounds turned out for EC50.
{"columns": ["compound", "testedOn", "unitsText", "EC50"],
 "data": [
  ["COc1cc2c(c(OC)c1O)-c1c(O)ccc(O)c1CC2 [CALANHYDROQUINONE A]", "A549", "µg/mL", 3.58],
  ["COc1cc2c(c(OC)c1O)C1=C(CC2)C(=O)C=CC1=O", "A549", "µg/mL", 3.58]
]}

Hi there! I need EC50 for each item below, if you can.
1. COc1cc(O)cc2c1-c1ccc(O)cc1CC2
2. COC1=CC(=O)c2ccc3cc(OC)c(O)c(OC)c3c2C1=O
3. COc1cc2c(c(OC)c1OC)-c1c(O)ccc(O)c1CC2 [CALANHYDROQUINONE C]
4. COc1cc2ccc3cccc(O)c3c2c(OC)c1O

Result:
5.05
4.54
2.36
5.06

Hi there! I need EC50 for each item below, if you can.
1. COc1cc(O)c(-c2c(O)cc(OC)c3c2CCc2cc(O)ccc2-3)c2c1-c1ccc(O)cc1CC2
2. COc1cc2c(cc1O)CCc1cc(O)cc(OC)c1-2

Result:
1. 4.61
2. 4.24

----------
# testName: Cytotoxicity against human KBVIN cells after 3 days by sulforhodamine B assay
# Assay type: functional, cell-based
# assayConditions: 72 h
testReadout: EC50 (µg/mL)
Give bare numbers, in µg/mL.

{"columns": ["compound", "EC50 (µg/mL)"],
 "data": [
  ["COc1cc2c(c(OC)c1OC)-c1c(O)ccc(O)c1CC2 [CALANHYDROQUINONE C]", 4.73],
  ["CC(=O)O[C@H]1C(=O)[C@@]2(C)[C@H]([C@H](OC(=O)c3ccccc3)[C@]3(O)C[C@H](OC(=O)[C@H](O)[C@@H](NC(=O)c4ccccc4)c4ccccc4)C(C)=C1C3(C)C)[C@]1(OC(C)=O)CO[C@@H]1C[C@@H]2O", 2.16]
]}

Read the next record carefully.
Form: compound = COc1cc2c(cc1O)CCc1cc(O)cc(OC)c1-2 ; EC50 = 5.84

----------
# testName: Cytotoxicity against human KBVIN cells after 3 days by sulforhodamine B assay
# Assay type: functional, cell-based
# assayConditions: 72 h
testReadout: EC50 (µg/mL)
Answers are plain numbers, in µg/mL.

Here is how some compounds turned out for EC50.
{"columns": ["compound", "readoutValue"],
 "data": [
  ["COc1c(O)cc2c(c1OC)-c1c(O)ccc(O)c1CC2 [CALANHYDROQUINONE B]", 5.24],
  ["COc1cc2ccc3cccc(O)c3c2c(OC)c1O", 6.99],
  ["COc1cc(O)c2c(c1)CCc1ccc(O)c(OC)c1-2", 5.48]
]}

Hi there! I need EC50 for each item below, if you can.
1. COc1cc(O)c(-c2c(O)cc(OC)c3c2CCc2cc(O)ccc2-3)c2c1-c1ccc(O)cc1CC2
2. COC1=CC(=O)c2ccc3cc(OC)c(OC)c(O)c3c2C1=O
3. COc1cc(O)cc2c1-c1ccc(O)cc1CC2
4. COc1cc2c(c(OC)c1O)C1=C(CC2)C(=O)C=CC1=O
5. COC1=CC(=O)c2ccc3cc(OC)c(O)c(OC)c3c2C1=O
6. COc1cc2c(c(OC)c1O)-c1c(O)ccc(O)c1CC2 [CALANHYDROQUINONE A]

Result:
1. 3.96
2. 0.45
3. 7.92
4. 4.68
5. 13.3
6. 5.37

----------
For each entry below, report its EC50 value.
# System: A549
# testName: Cytotoxicity against human A549 cells after 3 days by sulforhodamine B assay
# Type: functional, cell-based
# assayConditions: A549, 72 h
One number for each entry, in µg/mL.

{"columns": ["molecule", "testedOn", "unitsText", "EC50"],
 "data": [
  ["COc1c(O)cc2c(c1OC)-c1c(O)ccc(O)c1CC2 [CALANHYDROQUINONE B]", "A549", "µg/mL", 4.07],
  ["COC1=CC(=O)c2ccc3cc(OC)c(OC)c(O)c3c2C1=O", "A549", "µg/mL", 0.19]
]}

Lab note: molecule COc1cc(O)c2c(c1)CCc1ccc(O)c(OC)c1-2 tested on A549; recorded EC50 was 7.71
